- ASSAY TARGET: T1, ROR1 extracellular segment sequence (including transmembrane) on CHO cells (human, UniProt Q01973 30-472)
- T1 construct: Cloned into pCDNA3.1 and transfected into CHO cells; also called CHO-ROR1 (extracellular segment); CHO-ROR1
- T1 sequence (Q01973 30-472 limits assumed): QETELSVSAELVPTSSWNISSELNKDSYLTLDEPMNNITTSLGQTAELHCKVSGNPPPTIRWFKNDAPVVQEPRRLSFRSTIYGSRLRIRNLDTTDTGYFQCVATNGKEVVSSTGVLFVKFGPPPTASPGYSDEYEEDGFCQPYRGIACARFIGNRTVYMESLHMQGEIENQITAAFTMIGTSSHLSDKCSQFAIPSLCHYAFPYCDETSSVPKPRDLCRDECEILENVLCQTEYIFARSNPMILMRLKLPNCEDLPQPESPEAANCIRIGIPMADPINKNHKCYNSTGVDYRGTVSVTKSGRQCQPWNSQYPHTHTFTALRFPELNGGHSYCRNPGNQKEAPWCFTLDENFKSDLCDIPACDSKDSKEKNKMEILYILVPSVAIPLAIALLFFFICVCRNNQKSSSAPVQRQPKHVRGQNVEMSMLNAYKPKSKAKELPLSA
- PROTOCOL NOTES: FACS, CHO-ROR1 (extracellular segment) cells
READOUT KIND: EC50 (pM)
Answers are plain numbers, in pM.

>  <BINDER>
mAb006c (antibody, V domains shown, Human-mouse chimeric) VH: EVQLQQSGPELVKPGASLKMSCKASGYTFPDYNIHWVKQSHGKSLEWIGYINPNNGGTTYNQKFKGKATLTVSKSSSTAYMELRSLTSEDSAVYSCARRGYGSSYAMDYWAQGTSVTVSS VL: DVLMTQSPLSLPVSLGDQASISCRSSHIIVHTNGNTYLEWYLQKPGQSPKLLIYKVSNRFSGVPDRFSGSGSGTDFTLKISRVEAEDLGVYYCFQGSRVPYTFGGGTKLEIK

>  <UNIT DESCRIPTOR>
pM

>  <TEST RESULT>
710

$$$$

Below are 3 binders. Give each one its EC50.
1. mAb003c (antibody, V domains shown, Human-mouse chimeric) VH: EVQLVESGGGLVKPGGSLKLSCAASGFTFSSYAMSWVRQTPEKRLEWVATISDGGSYTYYPDSVKGRFTISRDNAKNNLYLQMSHLKSEDTDMYYCVRGGYYYNLYAMDYWGQGTSVTVSS VL: DIVLTQSPASLAVSLGQRAIISCKASQSVSFAGTSLMHWYQQKPGQQPKLLIYRASNLEAGVPTRFSGSGSRADFTLNIHPVEEDDAATYYCQQSGEYPWTFGGGTKLEIK
2. mAb007c (antibody, V domains shown, Human-mouse chimeric) VH: EVQLQQSGPELVKPGASVKMSCKASGYTFTDYNMHWVKQSHGKSLEWIGYINPNNGGTSYNQKFKGKATLTVNKSSSTAYMELRSLTSDDSAVYYCARRGYGSGYAMDYWGQGTSVTVSS VL: DVLMTQTPLSLPVSLGDQASISCRSSQSIVHTNGNTYLEWYLQNPGQSPKLLIYKVFNRFSGVPDRFSGSGSGTDFTLKISRVEAEDLGVYYCFQGSLFPYTFGGGTKLEIK
3. mAb008c (antibody, V domains shown, Human-mouse chimeric) VH: EVQLQQSGPELVKPGASVKMSCKASEYTFTDYNMHWVKQSHGKSLEWIGYINPNNGGTTYNQKFKGKATLTVNKSSSTAYMELRSLTSDDSAVYYCARRGYGSGYAMDYWGQGASVTVSS VL: DVLLTQTPLSLPVSLGDRASISCTSSQSIVHTNGNTYLEWYLQNPGQSPKLLIYKVSNRFSGVPDRFSGSGSGTDFTLKISRVEAEDLGVYYCFQGSLFPYTFGGGTKLEIK

stdout:
[1470, 540, 700]
